Target System: T1, human TROP2-his protein (human, UniProt P09758 27-274)
T1 construct: Biotin-labelled in the ELISAs, unlabelled analyte in Biacore; also called biotin-labeled human TROP2-his protein; biotin human Trop2-his
T1 sequence: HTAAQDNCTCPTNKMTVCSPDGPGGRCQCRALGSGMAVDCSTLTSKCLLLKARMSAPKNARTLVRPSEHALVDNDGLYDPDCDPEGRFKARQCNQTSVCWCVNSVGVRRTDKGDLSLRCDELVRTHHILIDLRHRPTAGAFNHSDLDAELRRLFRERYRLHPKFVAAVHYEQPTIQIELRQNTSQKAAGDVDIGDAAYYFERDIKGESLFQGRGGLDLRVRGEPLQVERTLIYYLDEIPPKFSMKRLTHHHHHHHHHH
Test Method Notes: SPR Biacore T200, supernatant antibody captured on anti-human IgG CM5 chip, 40 nM human TROP2-his
Listing of entries alongside the reported kon.
Property: kon (M⁻¹ s⁻¹)

[[record]]
binder = "huA1E4F7D4-V1 (antibody, human IgG1, kappa, V domains shown, Positions of the X residues are printed in CLM-00003 and CLM-00005; Tested as cell supernatant) VH: QVQLVQSGAEVKKPGASVKVSCKASGYSFTTHWIHWMKQRPGQGLEWIGTIFPSNAYAVYNQKFRDRAIMTADRSISTAYIELTRLRSDDTAVYYCARASYFDYWGQGTTVTVSS VL: DILLTQSPATLSLSPGERATLSCRASQNIGTSIHWFQQKPGGSPRLLIKYASESISGIPSRFSGSGSGTDFTLTISSVEPEDFAVYYCQHSHSWPFTFGQGTKLEIKR"
unit_abbreviation = "M⁻¹ s⁻¹"
recorded_number = 830000

[[record]]
binder = "huA1E4F7D4-V19 (antibody, human IgG1, kappa, V domains shown, Positions of the X residues are given in the claims; Tested as cell supernatant) VH: QVQLVQSGAEVKKPGASVKVSCKASGYSFTTHWIHWVRQAPGQGLEWIGTIFPSNAYAVYNQKFRDRVTMTADRSISTAYIELSRLRSDDTAVYYCARASYFDYWGQGTTVTVSS VL: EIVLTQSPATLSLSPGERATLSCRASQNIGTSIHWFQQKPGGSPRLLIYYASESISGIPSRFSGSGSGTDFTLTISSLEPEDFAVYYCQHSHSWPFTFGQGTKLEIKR"
unit_abbreviation = "M⁻¹ s⁻¹"
recorded_number = "1.16e+06"

[[record]]
binder = "huA1E4F7D4-V2 (antibody, human IgG1, kappa, V domains shown, Positions of the X residues are printed in CLM-00002, CLM-00003 and CLM-00005; Tested as cell supernatant) VH: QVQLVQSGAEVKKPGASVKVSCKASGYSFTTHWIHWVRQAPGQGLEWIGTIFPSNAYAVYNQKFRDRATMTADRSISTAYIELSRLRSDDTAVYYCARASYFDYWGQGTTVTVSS VL: EIVLTQSPATLSLSPGERATLSCRASQNIGTSIHWFQQKPGGSPRLLIKYASESISGIPSRFSGSGSGTDFTLTISSLEPEDFAVYYCQHSHSWPFTFGQGTKLEIKR"
unit_abbreviation = "M⁻¹ s⁻¹"
recorded_number = 874000

